Parameter: FACS-Seq fitted mean (log10). Scope: all listed entries.
B1: library; a variant is named by its letters at N, in order (parent)
chain: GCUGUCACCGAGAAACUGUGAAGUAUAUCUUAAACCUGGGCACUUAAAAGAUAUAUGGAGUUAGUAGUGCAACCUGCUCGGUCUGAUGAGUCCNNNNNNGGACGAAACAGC

Variants of: B1
protocol: FACS-Seq fitted mean relative fluorescence mCherry/BFP with ligand (log10 relative fluorescence); HEK293T; ligand: cyclic di-GMP (c-di-GMP-II aptamer); ligand concentration (+) FACS-Seq: 1 mM; higher = higher reporter protein expression
condition-set: ligand present: yes
test-readout: FACS-Seq fitted mean (log10)

>  <seq-string>
GCUGUCACCGAGAAACUGUGAAGUAUAUCUUAAACCUGGGCACUUAAAAGAUAUAUGGAGUUAGUAGUGCAACCUGCUCGGUCUGAUGAGUCCGCAAUGGGACGAAACAGC

>  <test-readout>
FACS-Seq fitted mean (log10)

>  <result-value>
0.131

$$$$
>  <seq-string>
GCUGUCACCGAGAAACUGUGAAGUAUAUCUUAAACCUGGGCACUUAAAAGAUAUAUGGAGUUAGUAGUGCAACCUGCUCGGUCUGAUGAGUCCGUCGGAGGACGAAACAGC

>  <test-readout>
FACS-Seq fitted mean (log10)

>  <result-value>
0.242

$$$$
>  <seq-string>
GCUGUCACCGAGAAACUGUGAAGUAUAUCUUAAACCUGGGCACUUAAAAGAUAUAUGGAGUUAGUAGUGCAACCUGCUCGGUCUGAUGAGUCCGUUGACGGACGAAACAGC

>  <test-readout>
FACS-Seq fitted mean (log10)

>  <result-value>
0.228

$$$$
>  <seq-string>
GCUGUCACCGAGAAACUGUGAAGUAUAUCUUAAACCUGGGCACUUAAAAGAUAUAUGGAGUUAGUAGUGCAACCUGCUCGGUCUGAUGAGUCCCCGUAUGGACGAAACAGC

>  <test-readout>
FACS-Seq fitted mean (log10)

>  <result-value>
-0.441

$$$$
>  <seq-string>
GCUGUCACCGAGAAACUGUGAAGUAUAUCUUAAACCUGGGCACUUAAAAGAUAUAUGGAGUUAGUAGUGCAACCUGCUCGGUCUGAUGAGUCCUAGUGGGGACGAAACAGC

>  <test-readout>
FACS-Seq fitted mean (log10)

>  <result-value>
0.162

$$$$
>  <seq-string>
GCUGUCACCGAGAAACUGUGAAGUAUAUCUUAAACCUGGGCACUUAAAAGAUAUAUGGAGUUAGUAGUGCAACCUGCUCGGUCUGAUGAGUCCUUAGUGGGACGAAACAGC

>  <test-readout>
FACS-Seq fitted mean (log10)

>  <result-value>
-0.0431

$$$$
>  <seq-string>
GCUGUCACCGAGAAACUGUGAAGUAUAUCUUAAACCUGGGCACUUAAAAGAUAUAUGGAGUUAGUAGUGCAACCUGCUCGGUCUGAUGAGUCCGCCAUUGGACGAAACAGC

>  <test-readout>
FACS-Seq fitted mean (log10)

>  <result-value>
-0.161

$$$$
>  <seq-string>
GCUGUCACCGAGAAACUGUGAAGUAUAUCUUAAACCUGGGCACUUAAAAGAUAUAUGGAGUUAGUAGUGCAACCUGCUCGGUCUGAUGAGUCCCGACAAGGACGAAACAGC

>  <test-readout>
FACS-Seq fitted mean (log10)

>  <result-value>
-0.273

$$$$
>  <seq-string>
GCUGUCACCGAGAAACUGUGAAGUAUAUCUUAAACCUGGGCACUUAAAAGAUAUAUGGAGUUAGUAGUGCAACCUGCUCGGUCUGAUGAGUCCCGUGGAGGACGAAACAGC

>  <test-readout>
FACS-Seq fitted mean (log10)

>  <result-value>
-0.0424

$$$$
>  <seq-string>
GCUGUCACCGAGAAACUGUGAAGUAUAUCUUAAACCUGGGCACUUAAAAGAUAUAUGGAGUUAGUAGUGCAACCUGCUCGGUCUGAUGAGUCCUUCACUGGACGAAACAGC

>  <test-readout>
FACS-Seq fitted mean (log10)

>  <result-value>
-0.577

$$$$
>  <seq-string>
GCUGUCACCGAGAAACUGUGAAGUAUAUCUUAAACCUGGGCACUUAAAAGAUAUAUGGAGUUAGUAGUGCAACCUGCUCGGUCUGAUGAGUCCCAUCCAGGACGAAACAGC

>  <test-readout>
FACS-Seq fitted mean (log10)

>  <result-value>
-0.519

$$$$
>  <seq-string>
GCUGUCACCGAGAAACUGUGAAGUAUAUCUUAAACCUGGGCACUUAAAAGAUAUAUGGAGUUAGUAGUGCAACCUGCUCGGUCUGAUGAGUCCGAAGCAGGACGAAACAGC

>  <test-readout>
FACS-Seq fitted mean (log10)

>  <result-value>
-0.329

$$$$
>  <seq-string>
GCUGUCACCGAGAAACUGUGAAGUAUAUCUUAAACCUGGGCACUUAAAAGAUAUAUGGAGUUAGUAGUGCAACCUGCUCGGUCUGAUGAGUCCAACAGUGGACGAAACAGC

>  <test-readout>
FACS-Seq fitted mean (log10)

>  <result-value>
-1.08

$$$$
>  <seq-string>
GCUGUCACCGAGAAACUGUGAAGUAUAUCUUAAACCUGGGCACUUAAAAGAUAUAUGGAGUUAGUAGUGCAACCUGCUCGGUCUGAUGAGUCCGUACGAGGACGAAACAGC

>  <test-readout>
FACS-Seq fitted mean (log10)

>  <result-value>
-0.0985

$$$$
>  <seq-string>
GCUGUCACCGAGAAACUGUGAAGUAUAUCUUAAACCUGGGCACUUAAAAGAUAUAUGGAGUUAGUAGUGCAACCUGCUCGGUCUGAUGAGUCCAGAAUUGGACGAAACAGC

>  <test-readout>
FACS-Seq fitted mean (log10)

>  <result-value>
0.346

$$$$
>  <seq-string>
GCUGUCACCGAGAAACUGUGAAGUAUAUCUUAAACCUGGGCACUUAAAAGAUAUAUGGAGUUAGUAGUGCAACCUGCUCGGUCUGAUGAGUCCUCAAUGGGACGAAACAGC

>  <test-readout>
FACS-Seq fitted mean (log10)

>  <result-value>
-0.188

$$$$
>  <seq-string>
GCUGUCACCGAGAAACUGUGAAGUAUAUCUUAAACCUGGGCACUUAAAAGAUAUAUGGAGUUAGUAGUGCAACCUGCUCGGUCUGAUGAGUCCACCAAAGGACGAAACAGC

>  <test-readout>
FACS-Seq fitted mean (log10)

>  <result-value>
-0.0508

$$$$
>  <seq-string>
GCUGUCACCGAGAAACUGUGAAGUAUAUCUUAAACCUGGGCACUUAAAAGAUAUAUGGAGUUAGUAGUGCAACCUGCUCGGUCUGAUGAGUCCCGAAUUGGACGAAACAGC

>  <test-readout>
FACS-Seq fitted mean (log10)

>  <result-value>
-0.238

$$$$
>  <seq-string>
GCUGUCACCGAGAAACUGUGAAGUAUAUCUUAAACCUGGGCACUUAAAAGAUAUAUGGAGUUAGUAGUGCAACCUGCUCGGUCUGAUGAGUCCACACAGGGACGAAACAGC

>  <test-readout>
FACS-Seq fitted mean (log10)

>  <result-value>
-0.191

$$$$
>  <seq-string>
GCUGUCACCGAGAAACUGUGAAGUAUAUCUUAAACCUGGGCACUUAAAAGAUAUAUGGAGUUAGUAGUGCAACCUGCUCGGUCUGAUGAGUCCAUGAGAGGACGAAACAGC

>  <test-readout>
FACS-Seq fitted mean (log10)

>  <result-value>
-0.147

$$$$
>  <seq-string>
GCUGUCACCGAGAAACUGUGAAGUAUAUCUUAAACCUGGGCACUUAAAAGAUAUAUGGAGUUAGUAGUGCAACCUGCUCGGUCUGAUGAGUCCAUCUACGGACGAAACAGC

>  <test-readout>
FACS-Seq fitted mean (log10)

>  <result-value>
0.162

$$$$
>  <seq-string>
GCUGUCACCGAGAAACUGUGAAGUAUAUCUUAAACCUGGGCACUUAAAAGAUAUAUGGAGUUAGUAGUGCAACCUGCUCGGUCUGAUGAGUCCCGUACAGGACGAAACAGC

>  <test-readout>
FACS-Seq fitted mean (log10)

>  <result-value>
-0.354

$$$$

Data origin: the supplement of paper PMC6757056
